Study system: BACE-1 enzyme (Homo sapiens)
Construct: purchased R & D Systems 931AS
Assay method text: BACE Fluorescence Resonance Energy Transfer (FRET) Assay
Type: biochemical
Particulars: pH 4-4.5, 30 min pre-incubation, about 1.5 hours reaction
# if measured IC50 < 0.4 µM: YES  # else: NO

Consider the worked cases shown below.
# Molecule, Classification
measured = [
    ("COc1cc(F)ccc1-c1ccc2[nH]c(NC(=O)c3cn4c(C)cccc4n3)nc2c1 [Example 105]", "NO"),
    ("CN1CCN(Cc2cccn3cc(C(=O)Nc4nc5cc(-c6cccc(C(F)(F)F)c6)ccc5[nH]4)nc23)CC1 [Example 194]", "NO"),
    ("CC(C)(C)NCc1cccc2nc(C(=O)Nc3nc4cc(-c5cccc(C(F)(F)F)c5)ccc4[nH]3)cn12 [Example 172]", "YES"),
    ("CO[C@@H]1CCN(c2cccc3nc(C(=O)Nc4nc5cc(-c6cc(F)cc(Cl)c6)ccc5[nH]4)cn23)C1 [Example 156]", "YES"),
    ("COCCNC(=O)c1cccc2nc(C(=O)Nc3nc4cc(-c5cc(F)cc(Cl)c5)ccc4[nH]3)cn12 [Example 228]", "YES"),
    ("Cc1cccc2nc(C(=O)Nc3nc4cc(-c5cccc(S(C)(=O)=O)c5)ccc4[nH]3)cn12 [Example 74]", "NO"),
]

Next up:
**Q:** Could you please tell me whether IC50 recorded for Cc1cccc2nc(C(=O)Nc3nc4cc(-c5ccc(OC(F)(F)F)cc5)ccc4[nH]3)cn12 [Example 98] is less than 0.4 µM?
**A:** NO

====

Test system: Aβ1-40 secreted from HEK293 cells stably expressing wildtype human APP695 protein (HEK-APPwt cells)
Assay method text: Aβ Cell Based Assay (Aβ1-40 secretion, ELISA)
Particulars: Homo sapiens, HEK293, 6 h, 6 hours incubation, reduction of Aβ1-40 secretion
Test readout: EC50 (µM)
Numeric answer only, unit µM assumed.

# Chemical string, Val
rows = [
    ("Cc1cccc2nc(C(=O)Nc3nc4cc(-c5cccc(Cl)c5)ccc4[nH]3)cn12", 1.45),
    ("O=C(Nc1nc2cc(-c3cccc(C(F)(F)F)c3)ccc2[nH]1)c1cn2ccccc2n1", 1.43),
    ("Cc1cccc2nc(C(=O)Nc3nc4cc(-c5ccc(OC(C)C)cc5)ccc4[nH]3)cn12", 1.78),
    ("COCCNCc1cccc2nc(C(=O)Nc3nc4cc(-c5cccc(C(F)(F)F)c5)ccc4[nH]3)cn12", 0.98),
    ("Cc1cccc2nc(C(=O)Nc3nc4cc(OCc5ccc(C(F)(F)F)cc5)ccc4[nH]3)cn12", 0.42),
]

**Q:** Field request: EC50 | item: Cc1cccn2cc(C(=O)Nc3nc4cc(-c5ccc(C(F)(F)F)cc5)ccc4[nH]3)nc12
**A:** 4.41

**Q:** For the compound shown here, Cc1cccc2nc(C(=O)Nc3nc4cc(CCc5ccc(C(F)(F)F)cc5)ccc4[nH]3)cn12 , give the reported EC50.
**A:** 0.87

**Q:** I have this compound here, Cc1cccn2cc(C(=O)Nc3nc4cc(-c5ccc(C(C)(C)C)cc5)ccc4[nH]3)nc12 , and I need its recorded EC50.
**A:** 0.98

====

Study system: BACE-1 enzyme (Homo sapiens, UniProt P56817)
Construct: purchased R & D Systems 931AS
Sequence (P56817 46-457 limits assumed): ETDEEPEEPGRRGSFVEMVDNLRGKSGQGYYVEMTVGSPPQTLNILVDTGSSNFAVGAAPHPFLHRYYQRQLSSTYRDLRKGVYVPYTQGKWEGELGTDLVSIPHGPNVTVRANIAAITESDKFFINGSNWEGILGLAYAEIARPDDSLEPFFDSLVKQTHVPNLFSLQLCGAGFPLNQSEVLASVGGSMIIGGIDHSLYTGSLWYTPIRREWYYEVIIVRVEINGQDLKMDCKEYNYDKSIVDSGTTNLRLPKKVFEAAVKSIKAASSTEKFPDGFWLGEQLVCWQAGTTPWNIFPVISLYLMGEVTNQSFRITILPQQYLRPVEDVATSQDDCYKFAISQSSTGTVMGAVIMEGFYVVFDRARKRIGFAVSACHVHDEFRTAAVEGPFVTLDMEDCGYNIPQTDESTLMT
Assay method text: BACE Fluorescence Resonance Energy Transfer (FRET) Assay
Format: biochemical
Particulars: pH 4-4.5, 30 min pre-incubation, about 1.5 hours reaction
Item-by-item account of IC50
Reply with just the number (in µM).

Examples from the recorded data:
# Compound, Output unit, Val
data = [
    ("COCCNCc1cccc2nc(C(=O)Nc3nc4cc(-c5cccc(C(F)(F)F)c5)ccc4[nH]3)cn12 [Example 162]", "µM", 0.23),
    ("Cc1cccc2nc(C(=O)Nc3nc4cc(C5CCCC5)ccc4[nH]3)cn12 [Example 118]", "µM", 0.99),
    ("CN1CCC(Oc2cccc3nc(C(=O)Nc4nc5cc(-c6cccc(C(F)(F)F)c6)ccc5[nH]4)cn23)CC1 [Example 3]", "µM", 1.15),
    ("COc1cc(F)cn2cc(C(=O)Nc3nc4cc(-c5cc(F)cc(Cl)c5)ccc4[nH]3)nc12 [Example 126]", "µM", 0.22),
]

**Q:** GET /values?readout=IC50&item= Cc1cccc2nc(C(=O)Nc3nc4cc(OC5CCCC5)ccc4[nH]3)cn12 [Example 30]
**A:** 4.15

**Q:** Endpoint output: IC50 of O=C(Nc1nc2cc(-c3ccc(F)c(C(F)(F)F)c3)ccc2[nH]1)c1cn2c(C(F)(F)F)cccc2n1 [Example 55] . Value?
**A:** 0.26

**Q:** Recorded IC50 of Cc1cccc2nc(C(=O)Nc3nc4cc(-c5cc(F)cc(C(F)(F)F)c5)ccc4[nH]3)cn12 [Example 94] , please.
**A:** 0.42

**Q:** Reported IC50, compound Cc1cccc2nc(C(=O)Nc3nc4cc(-c5cc(Cl)ccc5Cl)ccc4[nH]3)cn12 [Example 87] : ____
**A:** 0.22

====

Study system: BACE-1 enzyme (Homo sapiens)
Construct: purchased R & D Systems 931AS
Assay method text: BACE Fluorescence Resonance Energy Transfer (FRET) Assay
Assay type: biochemical
Particulars: pH 4-4.5, 30 min pre-incubation, about 1.5 hours reaction
Entries and their measured IC50 follow.
Use µM as the unit, but write only the number.

Some entries whose results are on file:
# Compound, Val
data = [
    ("CCOc1ccc(-c2ccc3[nH]c(NC(=O)c4cn5c(C)cccc5n4)nc3c2)c(Cl)c1 [Example 108]", 0.39),
    ("O=C(Nc1nc2cc(-c3cccc(C(F)(F)F)c3)ccc2[nH]1)c1cn2c(CN3CCCCC3)cccc2n1 [Example 166]", 0.79),
    ("CCN(C)Cc1cccn2cc(C(=O)Nc3nc4cc(-c5cccc(C(F)(F)F)c5)ccc4[nH]3)nc12 [Example 195]", 1.08),
]

Now consider a different compound.
**Q:** Find IC50 (BACE-1 enzyme (Homo sapiens)) for the entry CCN(C)Cc1cccc2nc(C(=O)Nc3nc4cc(-c5cccc(C(F)(F)F)c5)ccc4[nH]3)cn12 [Example 189]
**A:** 0.95

====

System: Aβ1-40 secreted from HEK293 cells stably expressing wildtype human APP695 protein (HEK-APPwt cells)
Assay method text: Aβ Cell Based Assay (Aβ1-40 secretion, ELISA)
Particulars: Homo sapiens, HEK293, 6 h, 6 hours incubation, reduction of Aβ1-40 secretion
Measured EC50 determines class: c1 (below 1 µM), c2 (1 µM to below 2 µM), c3 (2 µM or more)

Previously resolved entries follow.
# Molecule, Classification
measured = [
    ("CN(C)Cc1cccn2cc(C(=O)Nc3nc4cc(-c5cccc(C(F)(F)F)c5)ccc4[nH]3)nc12 [Example 197]", "c1"),
    ("CC(C)(C)NCc1cccc2nc(C(=O)Nc3nc4cc(-c5cccc(C(F)(F)F)c5)ccc4[nH]3)cn12 [Example 172]", "c2"),
    ("CNCc1cccn2cc(C(=O)Nc3nc4cc(-c5cccc(C(F)(F)F)c5)ccc4[nH]3)nc12 [Example 196]", "c3"),
    ("O=C(Nc1nc2cc(-c3cccc(C(F)(F)F)c3)ccc2[nH]1)c1cn2c(N3CCOCC3)cccc2n1 [Example 123]", "c2"),
]

**Q:** Class label required: Cc1cccc2nc(C(=O)Nc3nc4cc(-c5cccc(OC(F)(F)F)c5)ccc4[nH]3)cn12 [Example 46]
**A:** c1

**Q:** Could you tell me which band Cc1cccn2cc(C(=O)Nc3nc4cc(-c5cccc(C#N)c5)ccc4[nH]3)nc12 [Example 84] belongs to?
**A:** c3

**Q:** Kindly state the category for this molecule: CC(C)CN(C)Cc1cccn2cc(C(=O)Nc3nc4cc(-c5cccc(C(F)(F)F)c5)ccc4[nH]3)nc12 [Example 199]
**A:** c3

**Q:** Category of Cc1cccc2nc(C(=O)Nc3nc4cc(OCc5cccc(C(F)(F)F)c5)ccc4[nH]3)cn12 [Example 26] :
**A:** c2

====

System: Aβ1-40 secreted from HEK293 cells stably expressing wildtype human APP695 protein (HEK-APPwt cells)
Assay method text: Aβ Cell Based Assay (Aβ1-40 secretion, ELISA)
Particulars: Homo sapiens, HEK293, 6 h, 6 hours incubation, reduction of Aβ1-40 secretion
Test readout: EC50
Include the unit right after the number.

# Compound, EC50
measured = [
    ("Cc1cccc2nc(C(=O)Nc3nc4cc(-c5cc(C(F)(F)F)ccc5F)ccc4[nH]3)cn12", "0.21 µM"),
    ("Cc1cccc2nc(C(=O)Nc3nc4cc(-c5cccc(C(F)(F)F)c5)ccc4[nH]3)cn12", "0.53 µM"),
    ("O=C(Nc1nc2cc(-c3cccc(C(F)(F)F)c3)ccc2[nH]1)c1cn2ccc(CNCC(O)c3ccccc3)cc2n1 (stereo not shown)", "7.43 µM"),
]

Now look at this entry.
**Q:** Given the entry Cc1cccc2nc(C(=O)Nc3nc4cc(-c5ccc(Cl)cc5)ccc4[nH]3)cn12 , report its measured EC50.
**A:** 1.61 µM
